Listed here: items and their measured Kd.
# experimentalSystem: Dimeric Monkey Ang-2FD conjugated to human IgG1 (monkey (Macca fascicularis))
# Sequence (chain, as listed by the source limits assumed): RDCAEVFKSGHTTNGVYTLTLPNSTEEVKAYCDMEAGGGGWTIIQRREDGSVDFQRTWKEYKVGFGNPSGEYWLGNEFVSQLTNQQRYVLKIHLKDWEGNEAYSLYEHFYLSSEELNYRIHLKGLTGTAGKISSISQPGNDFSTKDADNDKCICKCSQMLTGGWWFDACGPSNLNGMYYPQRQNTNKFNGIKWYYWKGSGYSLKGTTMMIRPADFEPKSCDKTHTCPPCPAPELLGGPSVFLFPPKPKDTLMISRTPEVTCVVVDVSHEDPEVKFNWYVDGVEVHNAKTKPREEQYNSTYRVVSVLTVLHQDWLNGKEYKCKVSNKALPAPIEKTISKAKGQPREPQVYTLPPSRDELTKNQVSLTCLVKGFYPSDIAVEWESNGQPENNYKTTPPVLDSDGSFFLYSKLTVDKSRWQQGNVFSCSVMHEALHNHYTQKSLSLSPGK
# method: SPR, human IgG1 antibody captured
Report only the number, with the unit nM understood.

# count of solved cases: 7
1) H1H693P (antibody, human IgG1, V domains shown) VH: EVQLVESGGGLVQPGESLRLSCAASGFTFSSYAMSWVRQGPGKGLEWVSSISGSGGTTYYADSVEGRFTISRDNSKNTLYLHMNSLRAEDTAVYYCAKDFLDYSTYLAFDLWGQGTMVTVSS VL: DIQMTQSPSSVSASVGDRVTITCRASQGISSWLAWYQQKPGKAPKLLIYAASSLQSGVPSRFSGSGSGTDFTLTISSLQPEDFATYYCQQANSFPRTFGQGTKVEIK : 1.17
2) H1H728N (antibody, V domains shown) VH: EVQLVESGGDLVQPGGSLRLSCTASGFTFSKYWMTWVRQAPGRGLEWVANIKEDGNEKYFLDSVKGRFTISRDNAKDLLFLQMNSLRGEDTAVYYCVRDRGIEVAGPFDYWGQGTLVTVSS VL: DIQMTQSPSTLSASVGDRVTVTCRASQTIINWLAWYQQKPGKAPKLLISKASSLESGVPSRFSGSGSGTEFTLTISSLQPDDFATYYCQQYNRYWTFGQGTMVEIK : 2
3) H1H742N (antibody, V domains shown) VH: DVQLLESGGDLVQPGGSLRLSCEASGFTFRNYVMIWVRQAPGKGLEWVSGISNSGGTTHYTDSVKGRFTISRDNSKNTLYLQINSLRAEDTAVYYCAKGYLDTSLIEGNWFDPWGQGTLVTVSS VL: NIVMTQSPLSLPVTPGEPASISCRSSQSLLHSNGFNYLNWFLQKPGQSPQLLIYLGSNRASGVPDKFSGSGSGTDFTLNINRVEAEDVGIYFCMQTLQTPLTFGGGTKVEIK : 0.683
4) H1H750N (antibody, V domains shown) VH: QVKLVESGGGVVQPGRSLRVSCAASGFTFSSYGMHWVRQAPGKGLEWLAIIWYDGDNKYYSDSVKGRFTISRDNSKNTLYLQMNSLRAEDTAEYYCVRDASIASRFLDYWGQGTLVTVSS VL: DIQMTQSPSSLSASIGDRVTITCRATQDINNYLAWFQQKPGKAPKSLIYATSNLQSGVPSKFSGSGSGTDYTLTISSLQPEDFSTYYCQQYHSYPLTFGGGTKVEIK : 0.199
5) H1H743N (antibody, V domains shown) VH: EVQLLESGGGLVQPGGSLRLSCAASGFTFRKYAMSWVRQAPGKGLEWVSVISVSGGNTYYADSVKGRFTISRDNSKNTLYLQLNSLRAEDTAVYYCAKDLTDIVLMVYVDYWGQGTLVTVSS VL: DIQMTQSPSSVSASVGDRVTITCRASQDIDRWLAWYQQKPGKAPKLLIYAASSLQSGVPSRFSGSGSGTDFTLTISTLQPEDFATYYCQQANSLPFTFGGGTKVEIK : 0.0965
6) H1H730N (antibody, V domains shown) VH: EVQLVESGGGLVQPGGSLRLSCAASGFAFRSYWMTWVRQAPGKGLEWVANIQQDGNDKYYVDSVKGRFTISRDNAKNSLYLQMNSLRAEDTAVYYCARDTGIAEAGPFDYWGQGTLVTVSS VL: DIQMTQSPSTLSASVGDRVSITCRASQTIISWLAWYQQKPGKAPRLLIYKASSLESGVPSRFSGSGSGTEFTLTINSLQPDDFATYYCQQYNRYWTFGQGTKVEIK : 3.4
7) H1H732N (antibody, V domains shown) VH: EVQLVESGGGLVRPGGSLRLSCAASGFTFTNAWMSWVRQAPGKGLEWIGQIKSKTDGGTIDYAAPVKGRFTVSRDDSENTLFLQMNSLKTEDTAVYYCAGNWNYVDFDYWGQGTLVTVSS VL: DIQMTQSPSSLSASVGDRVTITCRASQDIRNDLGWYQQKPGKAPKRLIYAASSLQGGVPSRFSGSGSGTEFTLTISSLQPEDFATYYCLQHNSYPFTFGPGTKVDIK : 0.439

Proceeding to the next binder to report its Kd.
Query: Kd; subject: H1H724N (antibody, V domains shown) VH: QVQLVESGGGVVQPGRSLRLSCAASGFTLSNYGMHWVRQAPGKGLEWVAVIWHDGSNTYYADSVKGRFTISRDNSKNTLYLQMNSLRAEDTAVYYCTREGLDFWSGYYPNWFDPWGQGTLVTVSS VL: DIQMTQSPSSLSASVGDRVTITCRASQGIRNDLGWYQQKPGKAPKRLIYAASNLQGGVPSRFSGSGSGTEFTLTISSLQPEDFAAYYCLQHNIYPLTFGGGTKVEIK
0.239
